- Test system: Staphylococcus aureus
- Experiment: Antibacterial activity against Staphylococcus aureus SA-K1902 bearing norA- deficient mutation by microdilution technique
- Format: functional
Let's look at some molecules and their measured MIC.
Report as a plain number; the unit µg/mL is understood.

Examples with their reported MIC follow.
- O=C1CCSC2=C1CN(c1cc3c(cc1F)c(=O)c(C(=O)O)cn3C1CC1)CC2: 0.31
- O=C(O)c1cn(C2CC2)c2cc(N3CCNCC3)c(F)cc2c1=O [CIPROFLOXACIN]: 0.31
- CC1CSC2=C(CN(c3cc4c(cc3N)c(=O)c(C(=O)O)cn4C3CC3)CC2)C1=O (stereo not given): 1.56

Reported MIC (Staphylococcus aureus) for entry Nc1cc2c(=O)c(C(=O)O)cn(C3CC3)c2cc1N1CCC2=C(C1)C(O)CCS2 (stereo not given) is 12.5

Reported MIC (Staphylococcus aureus) for entry Nc1cc2c(=O)c(C(=O)O)cn(C3CC3)c2cc1N1CCC2=C(C1)/C(=N/O)CCS2 is 1.56

Where these numbers come from: ChEMBL document CHEMBL1155486
